# protocol: Example 9: single-dose study in healthy human subjects 30-75 mg/kg and 20 mg/kg x 2 (PK)
# Format: in vivo
# measurement_parameters: human, plasma, oral; 20 mg/kg × 2 at 12-hour interval; second dose; median; read-out: tmax
# Description: Example 9 was a single-dose escalating study in healthy volunteers. The objectives of the study were to assess the safety, tolerability, pharmacokinetic, and pharmacodynamics of single ascending doses of Compound 1. The doses tested were 30, 40, 50, 60, and 75 mg/kg once daily and a regimen of 20 mg/kg twice a day, which extended the range of doses evaluated. This Example confirms the earlier results obtained with higher dosage, as described in Example 7. […]
quantity: Tmax (min)
Answers are plain numbers, in min.

Exercise: Can you look up the measured Tmax of COCCOCCOCCOc1cccc(C2=N[C@@](C)(C(=O)O)CS2)c1O for me?
Key: 45

###

# protocol: Example 9: single-dose study in healthy human subjects 30-75 mg/kg and 20 mg/kg x 2 (PK)
# Type: in vivo
# measurement_parameters: human, plasma; single oral dose 40 mg/kg; read-out: t1/2 (converted)
quantity: half-life (h)
Give bare numbers, in h.

Exercise: Can you look up the measured half-life of COCCOCCOCCOc1cccc(C2=N[C@@](C)(C(=O)O)CS2)c1O for me?
Key: 18.6

###

# protocol: Example 9: single-dose study in healthy human subjects 30-75 mg/kg and 20 mg/kg x 2 (PK)
# Type: in vivo
# measurement_parameters: human, plasma, oral; across cohorts; read-out: t1/2, range
quantity: half-life

Exercise: Can you look up the measured half-life of COCCOCCOCCOc1cccc(C2=N[C@@](C)(C(=O)O)CS2)c1O [Compound 1] for me?
Key: 8.36 to 18.6 h

###

# protocol: Example 4: seven-day dosing in iron-overloaded human subjects (PK, tolerability)
# Format: in vivo
# measurement_parameters: human, plasma; 16 mg/kg daily 7 days oral
quantity: Tmax (h)
Numbers only, in h.

Exercise: Can you look up the measured Tmax of COCCOCCOCCOc1cccc(C2=N[C@@](C)(C(=O)O)CS2)c1O for me?
Key: 1

###

# protocol: Example 6: multiple-dose study in iron-overloaded human subjects (PK)
# Type: in vivo
# measurement_parameters: both sexes, human, plasma; 40 mg/kg/day, 7 days oral; N = 4; read-out: AUC(0 - 24)
quantity: AUC(0-t) (µg·h/mL)
Numbers only, in µg·h/mL.

Exercise: Can you look up the measured AUC(0-t) of COCCOCCOCCOc1cccc(C2=N[C@@](C)(C(=O)O)CS2)c1O [Compound 1] for me?
Key: 141

###

# protocol: Example 7: high single doses in healthy human subjects (PK)
# Type: in vivo
# measurement_parameters: both sexes, human, plasma; single oral dose 60 mg/kg, fasted; read-out: t½ (converted)
quantity: half-life (h)
Numbers only, in h.

Exercise: Can you look up the measured half-life of COCCOCCOCCOc1cccc(C2=N[C@@](C)(C(=O)O)CS2)c1O for me?
Key: 8.44

###

# protocol: Example 9: single-dose study in healthy human subjects 30-75 mg/kg and 20 mg/kg x 2 (PK)
# Assay type: in vivo
# measurement_parameters: human, plasma; single oral dose 40 mg/kg; read-out: VZ/F
quantity: Vd/F (L)
Give bare numbers, in L.

Exercise: Can you look up the measured Vd/F of COCCOCCOCCOc1cccc(C2=N[C@@](C)(C(=O)O)CS2)c1O for me?
Key: 542
